Data origin, for the record: patent US7169777B2

# subject.of.test: MC4 (Homo sapiens, UniProt P32245)
# Sequence (P32245 whole entry): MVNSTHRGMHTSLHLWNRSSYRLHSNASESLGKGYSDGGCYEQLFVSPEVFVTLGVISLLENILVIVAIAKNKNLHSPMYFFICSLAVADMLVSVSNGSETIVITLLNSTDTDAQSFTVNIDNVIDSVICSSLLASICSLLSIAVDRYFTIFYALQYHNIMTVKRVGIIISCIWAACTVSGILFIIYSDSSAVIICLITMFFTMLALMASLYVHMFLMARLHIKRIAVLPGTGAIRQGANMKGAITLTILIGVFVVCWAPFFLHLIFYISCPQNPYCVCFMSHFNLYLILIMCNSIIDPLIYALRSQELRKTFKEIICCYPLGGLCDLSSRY
# protocol.summary: Melanocortin receptor whole cell cAMP accumulation assay (MC4R)
# Format: cell-based
# Parameters: expressed in transfected cells; host or cells: HEK 293 (stably transfected)
# experimental.context: relative efficacy compared to NDP-alpha-MSH, defined as a 100% agonist
Structures can show the parent of a compound that is named as a salt.
I'd appreciate it if you could supply Relative Eff. values for the items below.
Output: the number by itself.

QUERY: If you can, please state the reported Relative Eff. value of CC(C)CC(CC(C)C)N1CCN(C(=O)[C@@H](Cc2ccc(Cl)cc2)NC(=O)CC2NCc3ccccc32)CC1.Cl.Cl (stereo partly shown) .
RESULT: 67.0

QUERY: For CCN(CC)CC(c1ccccc1F)N1CCN(C(=O)[C@@H](Cc2ccc(Cl)cc2)NC(=O)[C@H]2Cc3ccccc3C(C)(C)N2)CC1 (stereo partly shown) , what is its reported Relative Eff.?
RESULT: 108.6

QUERY: Given the entry CC(C)CN(CC(C1CCCCC1)N1CCN(C(=O)C(Cc2ccc(Cl)cc2)NC(=O)CC2NCc3ccccc32)CC1)S(C)(=O)=O (single isomer, unassigned) [Example N71, dihydrochloride salt] , report its measured Relative Eff..
RESULT: 102.6

QUERY: Relative Eff. for O=C(CC1NCc2ccccc21)N[C@H](Cc1ccc(Cl)cc1)C(=O)N1CCN(C(CC2CCCCC2)CN2CCOCC2)CC1 (mixture of isomers) [Example N38, tri(trifluoroacetate) salt] ?
RESULT: 115.6
